Molecular target: BRAF^V600E protein (Homo sapiens, UniProt P15056, V600E)
Sequence (P15056 whole entry V600E): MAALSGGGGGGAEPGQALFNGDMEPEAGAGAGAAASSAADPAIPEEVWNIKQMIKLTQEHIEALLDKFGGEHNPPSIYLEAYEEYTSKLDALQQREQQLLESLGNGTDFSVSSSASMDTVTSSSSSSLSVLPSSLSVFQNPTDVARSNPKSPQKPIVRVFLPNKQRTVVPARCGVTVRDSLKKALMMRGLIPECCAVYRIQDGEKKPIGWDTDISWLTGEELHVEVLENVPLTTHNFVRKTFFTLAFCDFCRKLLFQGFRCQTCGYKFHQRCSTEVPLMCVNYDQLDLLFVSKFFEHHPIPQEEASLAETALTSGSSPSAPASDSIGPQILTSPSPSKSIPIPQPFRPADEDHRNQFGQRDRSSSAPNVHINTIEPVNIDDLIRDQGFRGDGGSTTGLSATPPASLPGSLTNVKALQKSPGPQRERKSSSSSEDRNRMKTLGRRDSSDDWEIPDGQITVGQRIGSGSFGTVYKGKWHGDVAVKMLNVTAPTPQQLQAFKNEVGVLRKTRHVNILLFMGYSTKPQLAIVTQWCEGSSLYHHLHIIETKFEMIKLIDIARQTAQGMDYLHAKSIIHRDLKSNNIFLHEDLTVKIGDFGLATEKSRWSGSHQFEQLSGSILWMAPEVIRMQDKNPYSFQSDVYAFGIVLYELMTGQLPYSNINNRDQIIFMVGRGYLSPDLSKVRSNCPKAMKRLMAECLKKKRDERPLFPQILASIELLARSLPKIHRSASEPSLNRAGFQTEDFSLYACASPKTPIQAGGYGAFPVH
Assay: HiBiT cellular BRAF V600E degradation assay
Format: cell-based
Details: A375.10 cells, 24 h incubation; Emax = amount of residual protein remaining in the cell after compound treatment; read-out: HiBit 24 h Emax
Recorded Emax determines the group label, using lower level: < 8%; middle level: ≥ 8% and < 10%; upper level: ≥ 10%

Examples with answers:
INSERT INTO results (compound, discretelabel) VALUES
  ('CCN(C)S(=O)(=O)Nc1ccc(F)c(C(=O)c2c[nH]c3ncc(-c4cnc(N5CCC(NC(=O)CN6CCC(c7ccc(NC8CCC(=O)NC8=O)cn7)CC6)CC5)nc4)cc23)c1F (stereo not shown)', 'upper level'),
  ('CCN(C)S(=O)(=O)Nc1ccc(F)c(C(=O)c2c[nH]c3ncc(-c4ccc(N5CCN(C(=O)CN6Cc7ccc(NC8CCC(=O)NC8=O)cc7C6)CC5)nc4)cc23)c1F (stereo not shown)', 'upper level'),
  ('CCN(C)S(=O)(=O)Nc1ccc(F)c(C(=O)c2c[nH]c3ncc(-c4ccc(N5CCN(C(=O)CC6(O)CCN(c7ccc(N[C@H]8CCC(=O)NC8=O)cc7F)CC6)CC5)cc4)cc23)c1F', 'middle level'),
  ('O=C1CCC(Nc2ccc(C3CCN(CC(=O)N4CCN(c5ccc(-c6cnc7[nH]cc(C(=O)c8c(F)ccc(NS(=O)(=O)N9CCCC9)c8F)c7c6)cc5)CC4)CC3)cc2)C(=O)N1 (stereo not shown)', 'upper level'),
  ('CCN(C)S(=O)(=O)Nc1ccc(F)c(C(=O)c2c[nH]c3ncc(-c4ccc(N5CCN(C(=O)CC6(O)CCN(c7ccc8c(N9CCC(=O)NC9=O)nn(C)c8c7)CC6)CC5)nc4)cc23)c1F', 'lower level');

Form field 'band' for CCN(C)S(=O)(=O)Nc1ccc(F)c(C(=O)c2c[nH]c3ncc(-c4ccc(C5CCN(C(=O)CN6CCC(c7ccc(NC8CCC(=O)NC8=O)cc7)CC6)CC5)cc4)cc23)c1F (stereo not shown)
middle level

# bin label for CCN(C)S(=O)(=O)Nc1ccc(F)c(C(=O)c2c[nH]c3ncc(-c4cnc(N5CCN(C(=O)CN6CCC(c7ccc(NC8CCC(=O)NC8=O)cc7)CC6)CC5)nc4)c(C)c23)c1F (stereo not shown)
lower level

Dear colleague, I would appreciate it if you could identify the bin for CCN(C)S(=O)(=O)Nc1ccc(F)c(C(=O)c2c[nH]c3ncc(-c4cnc(N5CC6(CC(C7CCN(c8ccc(NC9CCC(=O)NC9=O)cc8F)CC7)C6)C5)nc4)cc23)c1F (stereo not shown) and reply at your convenience.
lower level

Hi there! Could you help me figure out the category for CC(C)S(=O)(=O)Nc1ccc(F)c(C(=O)c2c[nH]c3ncc(-c4cnc(N5CCN(C(=O)CN6CCC(c7ccc(OC8CCC(=O)NC8=O)cc7)CC6)CC5)nc4)cc23)c1F (stereo not shown) please?
upper level

* * *

Molecular target: BRAF^V600E protein (Homo sapiens, UniProt P15056, V600E)
Experiment: HiBiT cellular BRAF V600E degradation assay
Assay type: cell-based
Conditions: A375.10 cells, 24 h incubation; Emax = amount of residual protein remaining in the cell after compound treatment; read-out: HiBit 24 h Emax
Below, each entry is listed alongside its reported Emax.
Only the number, expressed in %, is required.

Some compounds with recorded Emax:
INSERT INTO measurements (compound, numericresult) VALUES
  ('O=C1CCC(Oc2ccc(C3CCN(CC(=O)N4CC5(C4)CN(c4ccc(-c6cnc7[nH]cc(C(=O)c8c(F)ccc(NS(=O)(=O)N9CC[C@@H](F)C9)c8F)c7c6)cn4)C5)CC3)cc2)C(=O)N1 (stereo partly shown)', 15),
  ('CCN(C)S(=O)(=O)Nc1ccc(F)c(C(=O)c2c[nH]c3ncc(-c4ccc(N5CCN(C(=O)CC6(O)CCN(c7ccc(NC8CCC(=O)NC8=O)cc7F)CC6)CC5)c(F)c4)cc23)c1F (stereo not shown)', 6.19),
  ('CCN(C)S(=O)(=O)Nc1ccc(F)c(C(=O)c2c[nH]c3ncc(-c4cnc(N5CCN(C(=O)CN6CCC(c7ccc(NC8CCC(=O)NC8=O)cc7)CC6)CC5)nc4)cc23)c1Cl (stereo not shown)', 4.98),
  ('CCN(C)S(=O)(=O)Nc1ccc(F)c(C(=O)c2c[nH]c3ncc(-c4cnc(N5CCN(C(=O)CC6CCN(c7ccc8c(C9CCC(=O)NC9=O)nn(C)c8c7)CC6)CC5)nc4)cc23)c1F (stereo not shown)', 19.3),
  ('CCN(C)S(=O)(=O)Nc1ccc(F)c(C(=O)c2c[nH]c3ncc(-c4cnc(N5CCN(C(=O)CN6CCC(c7ccc(N8CCC(=O)NC8=O)cc7F)CC6)CC5)nc4)cc23)c1F', 13.2);

Which Emax value is on record for CCN(C)S(=O)(=O)Nc1ccc(F)c(C(=O)c2c[nH]c3ncc(-c4ccc(N5CCN(CC(=O)N6CCC(c7ccc(OC8CCC(=O)NC8=O)cc7)CC6)CC5)nc4)cc23)c1F (stereo not shown) ?
19

Which value of Emax has been reported for CCCS(=O)(=O)Nc1ccc(F)c(C(=O)c2c[nH]c3ncc(-c4ccc(N5CCN(C(=O)CN6CCC(c7ccc(NC8CCC(=O)NC8=O)cc7)CC6)CC5)nc4)cc23)c1F (stereo not shown) in the records?
9.6

Please look up its Emax: CCN(C)S(=O)(=O)Nc1ccc(F)c(C(=O)c2c[nH]c3ncc(-c4cnc(N5CCN(C(=O)CC6(OP(=O)(O)O)CCN(c7ccc(C8CCC(=O)NC8=O)cc7F)CC6)CC5)nc4)cc23)c1F (stereo not shown) [Example 158e]
11.7

Entry CCN(C)S(=O)(=O)Nc1ccc(F)c(C(=O)c2c[nH]c3ncc(-c4ccc(N5CCN(C(=O)CC6(O)CCN(c7ccc(C8CCC(=O)NC8=O)cc7F)CC6)CC5)cc4)cc23)c1F (stereo not shown) : reported Emax = ?
9.59

Emax for CCN(C)S(=O)(=O)Nc1ccc(F)c(C(=O)c2c[nH]c3ncc(-c4ccc(N5CCN(C(=O)CC6(O)CCN(c7ccc(NC8CCC(=O)NC8=O)cc7F)C6)CC5)cc4)cc23)c1F (stereo not shown) ?
9.64
